System: MCF-12A cells
Test: iCELLigence real-time cell analysis
Assay type: cell-based, human
Details: Homo sapiens; MCF-12A; 96 h after treatment
Value Kind: IC50 (µM)
API: value field is a number in µM; no unit string.

Entry under review: COc1cc(C=C2C(=O)Nc3ccc(Cl)cc32)ccc1OCc1ccccn1 (mixture of isomers) . Reported IC50?
207

----------
System: MDA-MB-231/ATCC
Assay: NCI-60 one-dose screening
Assay type: cell-based
Settings: Homo sapiens, Breast Cancer, read-out: GI (%)
inhibition at 10 µM listing for selected compounds.
API: value field is a number in %; no unit string.

In the examples that follow, each entry is paired with its recorded inhibition at 10 µM.
Compound	inhibition at 10 µM, %
COc1cc(C=C2C(=O)Nc3ccc(Cl)cc32)ccc1OCc1ccccn1 (mixture of isomers)	4.62
COc1cc(C=C2C(=O)Nc3ccccc32)ccc1O (mixture of isomers)	33.7
COc1ccc(COc2ccc(/C=C3/C(=O)Nc4ccccc43)cc2OC)cc1	0.09
COc1cc(/C=C2/C(=O)Nc3cc(Cl)ccc32)ccc1OCc1ccc(F)cc1	7.87

Proceeding to the next compound to report its inhibition at 10 µM.
Entry under review: COc1cc(/C=C2/C(=O)Nc3ccccc32)ccc1OCc1ccc(F)cc1 . Reported inhibition at 10 µM?
-0.03

Reference source: paper PMC9948168
